Test: Binding affinity to EpsteinBarr virus Transmembrane domain 5 of latent membrane protein 1 assessed as dissociation constant by spectrofluorimetric analysis
Parameters: species or system human gammaherpesvirus 4
MEASUREMENT_LABEL: Kd (µM)
Please give a number only; it is taken to be in µM.

N=C(N)c1ccc(NC(=O)CCC(=O)Nc2ccc(C(=N)N)cc2)cc1 = 13.5

Lookup: Return reported Kd; argument: N=C(N)c1ccc(NCCCCCNc2ccc(C(=N)N)cc2)cc1
Found: 7.3

Lookup: And what about the compound N=C(N)c1ccc(NC(=O)CCCCC(=O)Nc2ccc(C(=N)N)cc2)cc1 ?
Found: 8.9

Lookup: Again, but for N=C(N)c1ccc(NC(=O)CCCC(=O)Nc2ccc(C(=N)N)cc2)cc1
Found: 2.6

====

// values below are reported pIC50
Test system: Escherichia coli
Test: Antibacterial activity against Escherichia coli FHK12
Type: ADME, organism-based
pIC50: −log10 of the molar value.

Previously resolved entries follow.
N=C(N)c1ccc(C(=O)NCCCNC(=O)c2ccc(C(=N)N)cc2)cc1 = < 3.70
N=C(N)c1ccc(NC(=O)CCCCC(=O)Nc2ccc(C(=N)N)cc2)cc1 = < 3.70
N=C(N)c1ccc(NC(=O)CCC(=O)Nc2ccc(C(=N)N)cc2)cc1 = < 3.70
N=C(N)c1ccc(NCCCCCNc2ccc(C(=N)N)cc2)cc1 = < 3.70

Now, please, on to the next molecule.
Lookup: Endpoint output: pIC50 of N=C(N)c1ccc(NC(=O)CCCC(=O)Nc2ccc(C(=N)N)cc2)cc1 . Value?
Found: 4.25

====

# key: entry, value: Papp at 2.5 h
Test: Apparent permeability in dog MDCK cells measured after 150 mins
Format: ADME, cell-based, Canis lupus familiaris
All answers are understood in ×10⁻⁶ cm/s, so give the number only.

N=C(N)c1ccc(C(=O)NCCCNC(=O)c2ccc(C(=N)N)cc2)cc1 = 1.07

Pending compound:
Lookup: Using the record for N=C(N)c1ccc(NC(=O)CCCC(=O)Nc2ccc(C(=N)N)cc2)cc1 , report its Papp at 2.5 h.
Found: 4.28
